target.desc: Mu-type opioid receptor (Rattus norvegicus)
Sequence (P33535 whole entry): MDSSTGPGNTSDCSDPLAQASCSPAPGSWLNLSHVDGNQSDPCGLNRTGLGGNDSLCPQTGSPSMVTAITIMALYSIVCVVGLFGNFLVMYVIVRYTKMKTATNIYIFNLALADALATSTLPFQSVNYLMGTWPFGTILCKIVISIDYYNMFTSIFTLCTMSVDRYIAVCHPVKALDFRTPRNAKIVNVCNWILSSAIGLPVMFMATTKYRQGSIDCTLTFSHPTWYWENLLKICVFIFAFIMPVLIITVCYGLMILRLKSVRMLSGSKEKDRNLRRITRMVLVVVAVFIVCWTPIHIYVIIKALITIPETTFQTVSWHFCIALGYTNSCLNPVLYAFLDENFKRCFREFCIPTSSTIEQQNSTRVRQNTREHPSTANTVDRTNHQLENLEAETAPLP
assay.comment: Inhibition of [3H]- ]DAMGO binding to Opioid receptor mu 1 from rat brain membrane
Non-standard residues stand in square brackets, D forms with d. Residues, ends and D or L forms follow the SMILES beside them. Tic = O=C(O)[C@@H]1Cc2ccccc2CN1; Aic = NC1(C(=O)O)Cc2ccccc2C1; Nle = CCCC[C@H](N)C(=O)O
Please go through the items and note down their log10 of Ki.
Heads up: the numbers are on a log10 scale; they represent Ki in µM.

In the examples that follow, each entry is paired with its recorded log10 of Ki.
molecule | target.desc | log10 of Ki
CC(C)[C@H](NC(=O)[C@H](CC(=O)O)NC(=O)[C@@H]1Cc2ccccc2CN1C(=O)[C@@H](C)NC(=O)[C@@H](N)Cc1ccc(O)cc1)C(=O)N[C@H](C(=O)NCC(N)=O)C(C)C (H-Y[dA][Tic]DVVG-NH2) | Mu-type opioid receptor (Rattus norvegicus) | 1.18
CC(C)[C@H](NC(=O)[C@H](CC(=O)O)NC(=O)C1(NC(=O)[C@@H](C)NC(=O)[C@@H](N)Cc2ccc(O)cc2)CCc2ccccc2C1)C(=O)N[C@H](C(=O)NCC(N)=O)C(C)C (stereo in doubt; 2) | Mu-type opioid receptor (Rattus norvegicus) | -0.17
CCCC[C@H](NC(=O)[C@H](CC(C)C)NC(=O)[C@H](Cc1ccccc1)NC(=O)[C@H](Cc1ccccc1)NC(=O)[C@@H]1Cc2ccccc2CN1C(=O)[C@@H](N)Cc1ccc(O)cc1)C(=O)N[C@@H](CC(=O)O)C(N)=O (H-Y[Tic]FFL[Nle]D-NH2) | Mu-type opioid receptor (Rattus norvegicus) | 0.62

For each of the molecules below, state log10 of Ki.
1. CC(C)[C@H](NC(=O)[C@H](CC(=O)O)NC(=O)[C@@H](Cc1ccccc1)NC(=O)[C@@H](C)NC(=O)[C@@H](N)Cc1ccc(O)cc1)C(=O)N[C@H](C(=O)NCC(N)=O)C(C)C
2. CC(C)[C@H](NC(=O)[C@H](CC(=O)O)NC(=O)[C@H](Cc1ccccc1)NC(=O)[C@@H]1Cc2ccccc2CN1C(=O)[C@@H](N)Cc1ccc(O)cc1)C(=O)N[C@H](C(=O)NCC(N)=O)C(C)C (H-Y[Tic]FDVVG-NH2)
3. CC(C)[C@H](NC(=O)[C@H](CC(=O)O)NC(=O)C1(NC(=O)[C@@H](C)NC(=O)[C@@H](N)Cc2ccc(O)cc2)Cc2ccccc2C1)C(=O)N[C@H](C(=O)NCC(N)=O)C(C)C (H-Y[dA][Aic]DVVG-NH2)

1: 0.94; 2: 0.97; 3: -0.68
